Target: Acetylcholinesterase (Rattus norvegicus)
Sequence (P37136 whole entry): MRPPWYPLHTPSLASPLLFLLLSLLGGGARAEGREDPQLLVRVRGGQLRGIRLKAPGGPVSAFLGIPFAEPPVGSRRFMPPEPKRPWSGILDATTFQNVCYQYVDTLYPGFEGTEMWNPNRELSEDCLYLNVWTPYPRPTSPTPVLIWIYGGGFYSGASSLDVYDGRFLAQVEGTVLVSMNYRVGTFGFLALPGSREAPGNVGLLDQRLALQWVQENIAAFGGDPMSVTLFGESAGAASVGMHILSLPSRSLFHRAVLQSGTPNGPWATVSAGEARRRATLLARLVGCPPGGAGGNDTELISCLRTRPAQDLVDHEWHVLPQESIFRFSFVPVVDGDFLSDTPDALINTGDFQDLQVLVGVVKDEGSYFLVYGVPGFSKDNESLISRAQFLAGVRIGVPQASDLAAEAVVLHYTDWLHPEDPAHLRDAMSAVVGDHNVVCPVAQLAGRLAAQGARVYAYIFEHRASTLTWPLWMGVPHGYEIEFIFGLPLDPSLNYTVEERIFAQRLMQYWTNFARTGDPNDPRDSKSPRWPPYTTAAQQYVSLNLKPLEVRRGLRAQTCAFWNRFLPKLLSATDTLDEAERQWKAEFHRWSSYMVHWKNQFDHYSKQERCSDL
Assay: Inhibition of AChE from rat cortex homogenate by Ellmans method
IC50 by entry:
Report the figure in nM without appending any unit label.

Find IC50 (Acetylcholinesterase (Rattus norvegicus)) for the entry `COc1ccc2c3c1O[C@H]1C[C@@H](O)C=C[C@@]31CCN(CCCCCCOc1ccc(C(=O)N3CCCC3)cc1)C2`
122

Form field: IC50 recorded for `COc1ccc2c3c1O[C@H]1C[C@@H](O)C=C[C@@]31CCN(CCCCCCOc1ccc(CN3CCOCC3)cc1)C2` with Acetylcholinesterase (Rattus norvegicus) (enter value)
113

---
Enter reported IC50 observed with Acetylcholinesterase (Rattus norvegicus) for COc1ccc2c3c1O[C@H]1C[C@@H](O)C=C[C@@]31CCN(CCCCCCOc1cccc(C(C)N3CCOCC3)c1)C2 (stereo not given in full)
154

Notebook entry, Acetylcholinesterase (Rattus norvegicus) assay: IC50 of `COc1ccc2c3c1O[C@H]1C[C@@H](O)C=C[C@@]31CCN(CCCCOc1ccc(CN3CCOCC3)cc1)C2` = ?
99.1

Record lookup: for Acetylcholinesterase (Rattus norvegicus), what IC50 belongs to COc1ccc2c3c1O[C@H]1C[C@@H](O)C=C[C@@]31CCN(CCCCOc1cccc(C(C)N3CCOCC3)c1)C2 (stereo not given in full) ?
94.1
